Sourced from patent US20250109140A1

Measured IC50 of individual entries
system: MYB mRNA; test: Splicing RT-qPCR assay, MYB canonical (CJ) and alternative (AJ) junction mRNA; assay type: cell-based; details: Homo sapiens; Table 7; IC50 = 50% response in CJ mRNA decrease; RT-qPCR, A673 or K562 cells, 24 hours treatment; read-out: MYB CJ

Lookup: So what's the measured IC50 for this one? Cn1cc2cc(-c3nc4sc(N5CCC56CCNCC6)cc4s3)cc(F)c2n1 [Compound 201]
Found: > 10 µM

Lookup: So what's the measured IC50 for this one? CN(c1cc2sc(-c3ccc(-c4cn[nH]c4)cc3O)nc2s1)[C@@H]1C[C@H]2CC[C@@H](C1)N2 [Compound 191]
Found: > 10 µM

Lookup: So what's the measured IC50 for this one? Cn1cc2cc(N3Cc4cc(C5CCNCC5)sc4C3=O)cc(F)c2n1 [Compound 1118]
Found: 1 to 10 µM

Lookup: So what's the measured IC50 for this one? Cc1c(O)c(-c2cc3cn(C4CCNCC4)nc3s2)cc2cn(C)nc12 [Compound 221]
Found: > 10 µM

---

Test system: Target C
Assay: HiBiT protein abundance assay, Target C (K562 HiBiT knock-in cells)
Format: cell-based, human
Conditions: 24 hours treatment
Protocol: • Promega Nano-Glo HiBiT Lytic Detection System (cat #N3030) • Corning 384-well TC-treated microplates (cat #3570) • Synthego Engineered Cells Knock-In Clones Cells were maintained in IMDM with 10% FBS. […] To determine compound effects on protein abundance of each target in Table 6, the percent response for each respective cell line was calculated at each compound concentration as follows: […]
Where a name gives a salt, the structure may show the parent alone.
Measured IC50 of individual entries

Cn1cc2c(F)cc(-n3cc4cc(C5CCNCC5)sc4n3)cc2n1    > 10000 nM
Cn1cc2cc(-c3cc4cn(C5CCOCC5)nc4s3)cc(F)c2n1    > 10000 nM
Cc1cn2nc(-c3cc4cn(C5CCNCC5)nc4s3)c(O)c2c(C)n1 [Compound 213, hydrochloride]    > 10000 nM
Cc1cn2cc(-n3cc4cc(C5CCNCC5)sc4n3)cc(Cl)c2n1    100 to 1000 nM
Cc1c(O)c(-c2cc3cn(C4CCNCC4)nc3s2)cc2cn(C)nc12    100 to 1000 nM
Cc1cn2cc(-c3cc4cn(C5CCNCC5)nc4s3)cc(F)c2n1    < 100 nM
Cn1cc2cc(-c3cc4cn(C5CCNCC5)nc4s3)c(C#N)cc2n1    1000 to 10000 nM
Cn1cc2cc(-c3cc4cn([C@H]5CCNC[C@@H]5F)nc4s3)cc(F)c2n1    1000 to 10000 nM
Cn1cc2cc(-c3cc4cn(C5CCNCC5)nc4s3)ncc2n1    1000 to 10000 nM
c1n[nH]cc1-n1cc2sc(C3CCNCC3)cc2n1    > 10000 nM

Lookup: So what's the measured IC50 for this one? Cn1cc2c(F)cc(-n3cc4sc(C5CCNCC5)cc4n3)cc2n1
Found: 1000 to 10000 nM

Lookup: So what's the measured IC50 for this one? Cc1c(O)c(-c2nc3cn(C4CCNCC4)nc3s2)cc2cn(C)nc12
Found: 1000 to 10000 nM

Lookup: So what's the measured IC50 for this one? Cn1cc2cc(-n3cc4nc(C5CCNCC5)sc4n3)cc(F)c2n1
Found: 1000 to 10000 nM

Lookup: So what's the measured IC50 for this one? COc1c(-c2cc3cn(C4CCNCC4)nc3s2)cc(F)c2nn(C)cc12
Found: > 10000 nM

Lookup: So what's the measured IC50 for this one? Cc1cn2cc(-n3cc4sc(C5CCNCC5)cc4n3)cc(Cl)c2n1
Found: 100 to 1000 nM

Lookup: So what's the measured IC50 for this one? Cc1cn2nc(-n3cc4sc(C5CCNCC5)cc4n3)nc2c(C)n1
Found: 1000 to 10000 nM

Lookup: So what's the measured IC50 for this one? Cn1cc2cc(-c3cc4cn([C@@H]5CCNC5)nc4s3)cc(F)c2n1 [Compound 160, hydrochloride]
Found: > 10000 nM

Lookup: So what's the measured IC50 for this one? Cc1cn2nc(-c3cc4cn([C@H]5CCNC[C@@H]5F)nc4s3)cc(C)c2n1 (mixture of isomers)
Found: > 10000 nM
